Assay: Solubility in water at pH 6.8
Assay type: physicochemical
ASSAY_ENDPOINT: solubility (µg/mL)
A number alone suffices; assume µg/mL.

Give me measured solubility, please, for this compound: COc1ccc(C2C(=O)c3ccc(OC)cc3C2c2ccccc2)cc1 (racemic)
68.7

====

Test system: RAW264.7
Experiment: Antiinflammatory activity against LPS-induced mouse RAW264.7 cells assessed as inhibition of NO production at 50 uM preincubated for 4 hrs followed by LPS stimulation for 24 hrs by Griess reaction
Format: functional
Use class 1 when the recorded inhibition at 50 µM is no lower than 80%; use class 0 when it is lower.

Check the entry COc1ccc([C@@H]2C(=O)c3ccc(OC)cc3[C@H]2c2ccc3ccccc3c2)cc1 (relative stereo) : does inhibition at 50 µM equal or exceed 80%?
class 0

Check the entry COc1ccc([C@@H]2C(=O)c3ccc(OC)cc3[C@H]2c2ccc(F)cc2)cc1 : does inhibition at 50 µM equal or exceed 80%?
class 1

Check the entry Oc1ccc(/C=C/c2cc(O)cc(O)c2)cc1 [RESVERATROL] : does inhibition at 50 µM equal or exceed 80%?
class 0

Check the entry COc1ccc([C@@H]2C(=O)c3ccc(OC)cc3[C@H]2c2ccc(OC(F)(F)F)cc2)cc1 (relative stereo) : does inhibition at 50 µM equal or exceed 80%?
class 0

Check the entry COc1cc(OC)cc([C@@H]2C(=O)c3cc(OC)cc(OC)c3[C@H]2Cc2ccccc2)c1 (relative stereo) : does inhibition at 50 µM equal or exceed 80%?
class 1

Check the entry COc1cc(OC)cc([C@@H]2C(=O)c3cc(OC)cc(OC)c3[C@H]2c2cccc(F)c2)c1 (relative stereo) : does inhibition at 50 µM equal or exceed 80%?
class 0

Check the entry COc1cc(OC)cc([C@@H]2c3c(OC)cc(OC)cc3C(=O)[C@H]2c2cc(OC)cc(OC)c2)c1 (relative stereo) : does inhibition at 50 µM equal or exceed 80%?
class 0

Check the entry COc1cc(OC)cc([C@@H]2C(=O)c3cc(OC)cc(OC)c3[C@H]2c2ccc3ccccc3c2)c1 (relative stereo) : does inhibition at 50 µM equal or exceed 80%?
class 0

Check the entry COc1cc(OC)cc([C@@H]2C(=O)c3cc(OC)cc(OC)c3[C@H]2c2ccc(OCc3ccccc3)cc2)c1 (relative stereo) : does inhibition at 50 µM equal or exceed 80%?
class 0

Check the entry COc1ccc([C@@H]2C(=O)c3ccc(OC)cc3[C@H]2c2ccc(-c3ccccc3)cc2)cc1 (relative stereo) : does inhibition at 50 µM equal or exceed 80%?
class 0

Check the entry CCOC(=O)[C@@H]1c2c(OC)cc(OC)cc2C(=O)[C@H]1c1cc(OC)cc(OC)c1 (relative stereo) : does inhibition at 50 µM equal or exceed 80%?
class 0

Check the entry COc1cc(OC)cc([C@@H]2C(=O)c3cc(OC)cc(OC)c3[C@H]2c2ccc(O)cc2)c1 (relative stereo) : does inhibition at 50 µM equal or exceed 80%?
class 0

Check the entry COc1ccc([C@@H]2C(=O)c3ccc(OC)cc3[C@H]2c2cc(OC)cc(OC)c2)cc1 (relative stereo) : does inhibition at 50 µM equal or exceed 80%?
class 0

Check the entry COc1ccc([C@@H]2c3c(OC)cc(OC)cc3C(=O)[C@H]2c2cc(OC)cc(OC)c2)cc1 (relative stereo) : does inhibition at 50 µM equal or exceed 80%?
class 0

Check the entry COc1cc(OC)cc([C@@H]2C(=O)c3cc(OC)cc(OC)c3[C@H]2c2ccc(-c3ccccc3)cc2)c1 (relative stereo) : does inhibition at 50 µM equal or exceed 80%?
class 0

Check the entry COc1cc(OC)cc([C@@H]2C(=O)c3cc(OC)cc(OC)c3[C@H]2c2ccc(F)cc2)c1 (relative stereo) : does inhibition at 50 µM equal or exceed 80%?
class 0

Check the entry COc1cc(OC)cc([C@@H]2C(=O)c3cc(OC)cc(OC)c3[C@H]2c2ccc(C)cc2)c1 : does inhibition at 50 µM equal or exceed 80%?
class 1

Check the entry COc1ccc([C@@H]2C(=O)c3ccc(OC)cc3[C@H]2C2CCCCC2)cc1 (relative stereo) : does inhibition at 50 µM equal or exceed 80%?
class 1

Check the entry CCOc1ccc([C@@H]2c3cc(OC)ccc3C(=O)[C@H]2c2ccc(OC)cc2)cc1 (relative stereo) : does inhibition at 50 µM equal or exceed 80%?
class 1

Check the entry COc1cc(OC)cc(C2C(O)c3cc(OC)cc(OC)c3C2c2ccccc2)c1 (configuration not stated) : does inhibition at 50 µM equal or exceed 80%?
class 0
